B1: DULLARD (parent)
chain: LVVFTASMEIYGSAVADKLDNSRS

- Variants of: B1
- experimentNotes: protein stability index of a GFP-peptide fusion (GPS, HEK-293T) (PSI 1-6); higher = more stable;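 also: lentivirally expressed fusions sorted by FACS into six bins by GFP to DsRed ratio, PSI derived from sequencing read proportions per bin multiplied by bin number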
- protocolConditions: c terminus: a fixed tail appended
recordedEndpoint: protein stability index

>  <mutantId>
M8I

>  <protein stability index>
4.57

$$$$
>  <mutantId>
I10T

>  <protein stability index>
1.87

$$$$
>  <mutantId>
V3M

>  <protein stability index>
3.28

$$$$
>  <mutantId>
I10P

>  <protein stability index>
2.16

$$$$
>  <mutantId>
V3P

>  <protein stability index>
3.51

$$$$
>  <mutantId>
D20P

>  <protein stability index>
2.48

$$$$
>  <mutantId>
V2M

>  <protein stability index>
2.25

$$$$
>  <mutantId>
V15N

>  <protein stability index>
1.87

$$$$
>  <mutantId>
G12E

>  <protein stability index>
1.45

$$$$
>  <mutantId>
R23Q

>  <protein stability index>
1.86

$$$$

Challenge: Fill blank: measured protein stability index of the variant F4C is ____.
Response given: 1.08

Challenge: Thanks! And L1R ?
Response given: 2.49
